- measurement_target: T1, STnMUC1 peptide, biotinylated
- T1 construct: also called STn peptide; 35-1
- T1 sequence (main, as listed by the source): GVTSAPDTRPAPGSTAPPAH
- experimental_details: SPR (Biacore T200): biotinylated STnMUC1 peptide (35-1) captured on CAP chip, scFv as analyte
pKd: −log10 of the molar value.
experimental_endpoint: pKd

[[record]]
binder = "humanised anti-TnMUC1 scFv protein 13P18 (19A), L2-H5 (scFv, Supernatant of construct 6D18 in the Octet assay; purified 13P18 elsewhere. scFv of CAR MB025; also called 6D18) scFv: DIVMTQSPDSLAVSLGERATINCKSSQSLLNSGDQKNYLTWYQQKPGQPPKLLIFWASTRESGVPDRFSGSGSGTDFTLTISSLQAEDVAVYYCQNDYSYPLTFGQGTKLEIKGGGGSGGGGSGGGGSGGGGSQVQLVQSGAEVKKPGSSVKVSCKASGYTFTDHAIHWVRQAPGQGLEWIGHFSPGNTDIKYNDKFKGRATLTVDRSTSTAYMELSSLRSEDTAVYFCKTSTFFFDYWGQGTTVTVSSAAAHHHHHH"
reported_measurement = 6.71

[[record]]
binder = "humanised anti-TnMUC1 scFv protein 16P4 (82A), L0-H3 (scFv, Supernatant of construct 6D4 in the Octet assay; purified 16P4 elsewhere. scFv of CAR MB021; also called 6D4) scFv: DIVMTQSPDSLAVSLGERATINCKSSQSLLNSGDQKNYLTWYQQKPGQPPKLLIYWASTRESGVPDRFSGSGSGTDFTLTISSLQAEDVAVYYCQNDYSYPLTFGQGTKLEIKGGGGSGGGGSGGGGSGGGGSQVQLVQSGAEVKKPGSSVKVSCKASGYTFTDHAIHWVRQAPGQGLEWMGHFSPGNTDIKYNDKFKGRVTITADKSTSTAYMELSSLRSEDTAVYYCKTSTFFFDYWGQGTTVTVSSAAAHHHHHH"
reported_measurement = 6.27

[[record]]
binder = "humanised anti-TnMUC1 scFv protein 13P16 (97A), L2-H3 (scFv, Supernatant of construct 6D16 in the Octet assay; purified 13P16 elsewhere. scFv of CAR MB024; also called 6D16) scFv: DIVMTQSPDSLAVSLGERATINCKSSQSLLNSGDQKNYLTWYQQKPGQPPKLLIFWASTRESGVPDRFSGSGSGTDFTLTISSLQAEDVAVYYCQNDYSYPLTFGQGTKLEIKGGGGSGGGGSGGGGSGGGGSQVQLVQSGAEVKKPGSSVKVSCKASGYTFTDHAIHWVRQAPGQGLEWMGHFSPGNTDIKYNDKFKGRVTITADKSTSTAYMELSSLRSEDTAVYYCKTSTFFFDYWGQGTTVTVSSAAAHHHHHH"
reported_measurement = 6.35

[[record]]
binder = "humanised anti-TnMUC1 scFv protein 11P6 (89A), L0-H5 (scFv, Supernatant of construct 6D6 in the Octet assay; purified 11P6 elsewhere; also called 6D6) scFv: DIVMTQSPDSLAVSLGERATINCKSSQSLLNSGDQKNYLTWYQQKPGQPPKLLIYWASTRESGVPDRFSGSGSGTDFTLTISSLQAEDVAVYYCQNDYSYPLTFGQGTKLEIKGGGGSGGGGSGGGGSGGGGSQVQLVQSGAEVKKPGSSVKVSCKASGYTFTDHAIHWVRQAPGQGLEWIGHFSPGNTDIKYNDKFKGRATLTVDRSTSTAYMELSSLRSEDTAVYFCKTSTFFFDYWGQGTTVTVSSAAAHHHHHH"
reported_measurement = 6.70

